Reference for the values: patent US20150330990A1

molecular target: alpha-synuclein (Homo sapiens, UniProt P37840, A90C); assay: SHG conformational change assay, compound added alone; format: binding; set-up: made in house; conditions: 5 μM alpha-synuclein, GraphPad non-linear fit; read-out: EC50 (SHG dose-response curve; binding affinity)
MEASURE_NAME: EC50 (mM)
# unit: mM | format: bare number

Lookup: Item under review: NCCCCNCCCN [Spermidine] . Reported EC50?
Found: 1.11
